// pKi lookup, one value per entry
target: Sigma non-opioid intracellular receptor 1 (Cavia porcellus)
Sequence (Q60492 whole entry): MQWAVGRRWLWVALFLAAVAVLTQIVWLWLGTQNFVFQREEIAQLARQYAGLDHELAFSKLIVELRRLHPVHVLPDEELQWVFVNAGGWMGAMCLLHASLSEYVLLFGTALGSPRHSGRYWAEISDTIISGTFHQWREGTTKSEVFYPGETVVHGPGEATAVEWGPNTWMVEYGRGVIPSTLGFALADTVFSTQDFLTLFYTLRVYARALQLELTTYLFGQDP
procedure.text: Displacement of [3H](+)-pentazocine from sigma1 receptor in guinea pig brain membrane by liquid scintillation counting
pKi field: float, defined as -log10 of concentration (mol/L).

Some compounds with recorded pKi:
1) O[C@@H]1CC[C@H](OCc2ccc(F)cc2)C[C@H]1N1CCC(c2ccccc2)CC1; 7.51
2) O=C(c1ccc(Br)cc1)C1CCN([C@@H]2Cc3ccccc3C[C@H]2O)CC1 (racemic); 6.53
3) O=C(c1ccccc1)C1CCN([C@@H]2Cc3ccccc3C[C@H]2O)CC1 (racemic); 6.66
4) O[C@@H]1CCN(Cc2ccc(F)cc2)C[C@H]1N1CCC(c2ccccc2)CC1; 7.67

Moving on to the next compound.
## Input Form field - read-out: pKi; system: Sigma non-opioid intracellular receptor 1 (Cavia porcellus); submitted item: `O[C@@H]1C[C@H](OCc2ccc(F)cc2)CC[C@H]1N1CCC(c2ccccc2)CC1`
## Output 7.67

---

Items are presented alongside their recorded log10 Ki.
procedure.text: Displacement of [3H]DTG from sigma2 receptor in rat liver membrane
Format: cell membranes
Heads up: the numbers are on a log10 scale; they represent Ki in nM.

Some compounds with known log10 Ki results, for comparison:
1) O=C(c1ccc(Br)cc1)C1CCN([C@@H]2Cc3ccccc3C[C@H]2O)CC1 (racemic); 2.77
2) O[C@@H]1C[C@H](OCc2ccc(F)cc2)CC[C@H]1N1CCC(c2ccccc2)CC1; 1.20
3) O=C(c1ccccc1)C1CCN([C@@H]2Cc3ccccc3C[C@H]2O)CC1 (racemic); 2.51
4) O[C@@H]1CC[C@H](OCc2ccc(F)cc2)C[C@H]1N1CCC(c2ccccc2)CC1; 1.27
5) O=C(c1ccc(F)cc1)C1CCN([C@@H]2Cc3ccccc3C[C@H]2O)CC1 (stereo in doubt; (-)-9e); 2.50

## Input # query: log10 Ki of entry `O[C@@H]1CCN(Cc2ccc(F)cc2)C[C@H]1N1CCC(c2ccccc2)CC1`
## Output 1.56

## Input For the compound shown here, `O[C@@H]1CCCC[C@H]1N1CCC(c2ccccc2)CC1` , give the reported log10 Ki.
## Output 1.54

## Input // lookup log10 Ki for O=C(c1ccc(F)cc1)C1CCN([C@@H]2Cc3ccccc3C[C@H]2O)CC1 (stereo in doubt; (+)-9e)
## Output 2.44

## Input Data request, read-out log10 Ki, for O=C(c1ccc(F)cc1)C1CCN([C@@H]2Cc3ccccc3C[C@H]2O)CC1 (racemic)
## Output 2.40

---

Reported Ki values, Vesicular acetylcholine transporter (Homo sapiens, UniProt Q16572).
# unit: nM | format: bare number

Consider the reported Ki for these molecules:
1) O[C@@H]1CCN(Cc2ccc(F)cc2)C[C@H]1N1CCC(c2ccccc2)CC1; 0.22
2) O[C@@H]1C[C@H](OCc2ccc(F)cc2)CC[C@H]1N1CCC(c2ccccc2)CC1; 330

# next molecule below
## Input Please provide the recorded Ki for O=C(c1ccc([N+](=O)[O-])cc1)C1CCN([C@@H]2Cc3ccccc3C[C@H]2O)CC1 (racemic) , tested on Vesicular acetylcholine transporter (Homo sapiens, UniProt Q16572).
## Output 0.48

---

target: Vesicular acetylcholine transporter (Homo sapiens, UniProt Q16572)
Sequence (Q16572 whole entry): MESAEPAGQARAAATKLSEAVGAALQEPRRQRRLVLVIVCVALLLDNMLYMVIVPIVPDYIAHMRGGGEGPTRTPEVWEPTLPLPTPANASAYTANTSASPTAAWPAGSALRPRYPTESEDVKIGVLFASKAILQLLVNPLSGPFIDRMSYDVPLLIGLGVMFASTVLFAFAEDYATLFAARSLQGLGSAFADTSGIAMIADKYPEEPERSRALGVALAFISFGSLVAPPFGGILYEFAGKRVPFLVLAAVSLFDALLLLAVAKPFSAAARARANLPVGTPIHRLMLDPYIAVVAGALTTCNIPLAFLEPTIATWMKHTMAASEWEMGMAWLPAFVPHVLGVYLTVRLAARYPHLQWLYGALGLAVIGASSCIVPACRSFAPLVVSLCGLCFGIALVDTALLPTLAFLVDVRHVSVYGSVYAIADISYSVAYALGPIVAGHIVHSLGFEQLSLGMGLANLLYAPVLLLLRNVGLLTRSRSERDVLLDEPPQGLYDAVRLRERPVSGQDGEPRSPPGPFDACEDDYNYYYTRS
quantity.kind: Kd (nM)
Provide the reading as a plain figure in nM.

## Input Endpoint output: Kd of `NCC1(c2ccccc2)CCN([C@@H]2Cc3c(I)cccc3C[C@H]2O)CC1` . Value?
## Output 3
